meta.source: paper PMC6214909

Test system: NTMT2-N89G mutant
protocolDetails: MALDI-MS methyltransferase activity assay, NTMT2-N89G mutant
Type: biochemical, human
conditionLabel: NTMT2-N89G under the same conditions (2 μM enzyme, 10 μM peptide, 200 μM SAM, pH 7.5, 37 °C, overnight)
hey, just use true if measured Mono-methylated fraction is less than 20%, otherwise false

*Q* Could you please tell me whether Mono-methylated fraction recorded for IPKRIA [synthetic XPKRIA hexapeptide substrate, X = I] is less than 20%?
*A* true

*Q* Now the same for CPKRIA [synthetic XPKRIA hexapeptide substrate, X = C]
*A* false

*Q* TPKRIA [synthetic XPKRIA hexapeptide substrate, X = T] , same question.
*A* true

*Q* // next record NPKRIA [synthetic XPKRIA hexapeptide substrate, X = N]
*A* false

*Q* Quick one: LPKRIA [synthetic XPKRIA hexapeptide substrate, X = L]
*A* true

###

Test system: NTMT1
protocolDetails: MALDI-MS methyltransferase activity assay, NTMT1
Assay type: biochemical, human
conditionLabel: 2 μM NTMT1, 10 μM peptide, 200 μM SAM, 25 mM Tris–HCl pH 7.5, 50 mM KCl, 37 °C, overnight
The substances listed here are annotated with their Unmethylated fraction.
# output: bare number, implied unit %

[[record]]
substance = "RPKRIA [synthetic XPKRIA hexapeptide substrate, X = R]"
valueobserved = 0.00


*Q* Can you share its Unmethylated fraction? I mean this substance: NPKRIA [synthetic XPKRIA hexapeptide substrate, X = N]
*A* 0.00

*Q* Please give the result for MPKRIA [synthetic XPKRIA hexapeptide substrate, X = M] too.
*A* 0.00

*Q* Same read-out for HPKRIA [synthetic XPKRIA hexapeptide substrate, X = H] ?
*A* 0.00

*Q* Record: DPKRIA [synthetic XPKRIA hexapeptide substrate, X = D]
*A* 90.64

*Q* Same question for LPKRIA [synthetic XPKRIA hexapeptide substrate, X = L] please.
*A* 0.00

###

Tested on: NTMT1
protocolDetails: MALDI-MS methyltransferase activity assay, NTMT1
Type: biochemical, human
conditionLabel: 2 μM NTMT1, 10 μM peptide, 200 μM SAM, 25 mM Tris–HCl pH 7.5, 50 mM KCl, 37 °C, overnight
outcomeMeasure: Mono-methylated fraction (%)
Answer format: numeric, % implied, no suffix.

Known results for substances:
[[record]]
substance = "VPKRIA [synthetic XPKRIA hexapeptide substrate, X = V]"
valueobserved = 54.30

[[record]]
substance = "FPKRIA [synthetic XPKRIA hexapeptide substrate, X = F]"
valueobserved = 0.00

[[record]]
substance = "APKRIA [synthetic XPKRIA hexapeptide substrate, X = A]"
valueobserved = 0.00


// below: Mono-methylated fraction requested for another substance
*Q* Query for NTMT1: what Mono-methylated fraction does the record show for RPKRIA [synthetic XPKRIA hexapeptide substrate, X = R] ?
*A* 0.00

###

testedTarget: NTMT2 (Homo sapiens, UniProt Q5VVY1)
Construct: DNA encoding human NTMT2 (residues 58–278) was amplified by PCR; SUMO (His8-SUMO of the pET28-MKH8SUMO vector, with TEV site) (N, cleaved yes); made in house; host or cells: Escherichia coli BL21 (DE3)
Sequence (Q5VVY1 58-278): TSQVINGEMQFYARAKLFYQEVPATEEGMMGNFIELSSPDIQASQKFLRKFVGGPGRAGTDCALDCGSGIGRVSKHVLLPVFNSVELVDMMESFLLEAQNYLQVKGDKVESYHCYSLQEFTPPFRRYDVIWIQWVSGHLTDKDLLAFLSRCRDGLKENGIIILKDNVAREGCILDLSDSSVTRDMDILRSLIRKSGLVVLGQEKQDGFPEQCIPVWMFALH
protocolDetails: MALDI-MS methyltransferase activity assay, NTMT2
Type: biochemical
conditionLabel: 2 μM NTMT2, 10 μM peptide, 200 μM SAM, 25 mM Tris–HCl pH 7.5, 50 mM KCl, 37 °C, overnight
Procedure: A mixture (36 μL) of 2 μM enzyme (NTMT1 or NTMT2), 25 mM Tris–HCl pH 7.5, 50 mM KCl and 200 μM SAM was incubated at 37 °C for 5 min. 4 μL of 100 μM peptide substrate (final concentration 10 μM) was then added to initiate the reaction. […] Reaction mixtures were analyzed with an Applied Biosystems Voyager matrix-assisted laser desorption/ionization time-of-flight mass spectrometer. […]
The substances listed here are annotated with their Unmethylated fraction.
// units = %; emit number, no label

Record excerpt, results attached:
[[record]]
substance = "GPKRIA [synthetic XPKRIA hexapeptide substrate, X = G]"
valueobserved = 36.61

[[record]]
substance = "KPKRIA [synthetic XPKRIA hexapeptide substrate, X = K]"
valueobserved = 94.81

[[record]]
substance = "APKRIA [synthetic XPKRIA hexapeptide substrate, X = A]"
valueobserved = 67.83

[[record]]
substance = "WPKRIA [synthetic XPKRIA hexapeptide substrate, X = W]"
valueobserved = 63.65

[[record]]
substance = "DPKRIA [synthetic XPKRIA hexapeptide substrate, X = D]"
valueobserved = 100.00


*Q* Observed Unmethylated fraction on NTMT2 (Homo sapiens, UniProt Q5VVY1) for HPKRIA [synthetic XPKRIA hexapeptide substrate, X = H] , please.
*A* 60.95

*Q* Moving on to the next substance: YPKRIA [synthetic XPKRIA hexapeptide substrate, X = Y]
*A* 76.28

*Q* What would you report for VPKRIA [synthetic XPKRIA hexapeptide substrate, X = V] ?
*A* 100.00

*Q* How about this substance: QPKRIA [synthetic XPKRIA hexapeptide substrate, X = Q]
*A* 100.00

*Q* Please answer likewise for NPKRIA [synthetic XPKRIA hexapeptide substrate, X = N]
*A* 100.00

###

Test system: NTMT2-N89G mutant
protocolDetails: MALDI-MS methyltransferase activity assay, NTMT2-N89G mutant
Format: biochemical, human
conditionLabel: NTMT2-N89G under the same conditions (2 μM enzyme, 10 μM peptide, 200 μM SAM, pH 7.5, 37 °C, overnight)
Lab note: anything with Unmethylated fraction below 50% is marked YES; values at 50% or higher are marked NO.

Look over these answered cases.
[[record]]
substance = "HPKRIA [synthetic XPKRIA hexapeptide substrate, X = H]"
classassignment = "YES"

[[record]]
substance = "TPKRIA [synthetic XPKRIA hexapeptide substrate, X = T]"
classassignment = "NO"

[[record]]
substance = "LPKRIA [synthetic XPKRIA hexapeptide substrate, X = L]"
classassignment = "NO"

[[record]]
substance = "FPKRIA [synthetic XPKRIA hexapeptide substrate, X = F]"
classassignment = "YES"

[[record]]
substance = "EPKRIA [synthetic XPKRIA hexapeptide substrate, X = E]"
classassignment = "NO"

[[record]]
substance = "QPKRIA [synthetic XPKRIA hexapeptide substrate, X = Q]"
classassignment = "NO"


*Q* Confirm or reject: Unmethylated fraction of MPKRIA [synthetic XPKRIA hexapeptide substrate, X = M] lies strictly below 50%
*A* YES

*Q* For YPKRIA [synthetic XPKRIA hexapeptide substrate, X = Y] then?
*A* YES

###

Test system: NTMT2-N89G mutant
protocolDetails: MALDI-MS methyltransferase activity assay, NTMT2-N89G mutant
Assay type: biochemical, human
conditionLabel: NTMT2-N89G under the same conditions (2 μM enzyme, 10 μM peptide, 200 μM SAM, pH 7.5, 37 °C, overnight)
outcomeMeasure: Di-methylated fraction (%)
Provide only the numeric value, understood in %.

Some solved cases for reference:
[[record]]
substance = "RPKRIA [synthetic XPKRIA hexapeptide substrate, X = R]"
valueobserved = 0.00

[[record]]
substance = "VPKRIA [synthetic XPKRIA hexapeptide substrate, X = V]"
valueobserved = 0.00

[[record]]
substance = "KPKRIA [synthetic XPKRIA hexapeptide substrate, X = K]"
valueobserved = 0.00

[[record]]
substance = "QPKRIA [synthetic XPKRIA hexapeptide substrate, X = Q]"
valueobserved = 0.00


*Q* # get_value(readout='Di-methylated fraction', item= YPKRIA [synthetic XPKRIA hexapeptide substrate, X = Y] )
*A* 0.00

*Q* Queued: FPKRIA [synthetic XPKRIA hexapeptide substrate, X = F]
*A* 0.00

###

Test system: NTMT2-N89G mutant
protocolDetails: MALDI-MS methyltransferase activity assay, NTMT2-N89G mutant
Type: biochemical, human
conditionLabel: NTMT2-N89G under the same conditions (2 μM enzyme, 10 μM peptide, 200 μM SAM, pH 7.5, 37 °C, overnight)
Procedure: A mixture (36 μL) of 2 μM enzyme (NTMT1 or NTMT2), 25 mM Tris–HCl pH 7.5, 50 mM KCl and 200 μM SAM was incubated at 37 °C for 5 min. 4 μL of 100 μM peptide substrate (final concentration 10 μM) was then added to initiate the reaction. […] Reaction mixtures were analyzed with an Applied Biosystems Voyager matrix-assisted laser desorption/ionization time-of-flight mass spectrometer. […]
We begin with a simple list: items and their reported Trimethylated fraction.
Just the number please, in %, no unit attached.

[[record]]
substance = "CPKRIA [synthetic XPKRIA hexapeptide substrate, X = C]"
testedtarget = "NTMT2-N89G mutant"
outcomemeasure = "Trimethylated fraction"
valueobserved = 0.00

[[record]]
substance = "APKRIA [synthetic XPKRIA hexapeptide substrate, X = A]"
testedtarget = "NTMT2-N89G mutant"
outcomemeasure = "Trimethylated fraction"
valueobserved = 1.93

[[record]]
substance = "VPKRIA [synthetic XPKRIA hexapeptide substrate, X = V]"
testedtarget = "NTMT2-N89G mutant"
outcomemeasure = "Trimethylated fraction"
valueobserved = 0.00

[[record]]
substance = "KPKRIA [synthetic XPKRIA hexapeptide substrate, X = K]"
testedtarget = "NTMT2-N89G mutant"
outcomemeasure = "Trimethylated fraction"
valueobserved = 0.00


Moving on to the next substance.
*Q* Any idea what its Trimethylated fraction is? The substance is MPKRIA [synthetic XPKRIA hexapeptide substrate, X = M]
*A* 0.00
